Cited source for all entries: PubChem BioAssay (NCATS)

- target-or-test-system: Voltage-gated inwardly rectifying potassium channel KCNH2 (Homo sapiens)
- test-description: qHTS Assay for Small Molecule Inhibitors of the Human hERG Channel Activity (AID 588834);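 further: lower thallium flux fluorescence means stronger hERG block; nearly all actives have a fitted effect of over 50% in size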
- applied-conditions: U2OS BacMam hERG, FluxOR thallium flux fluorescence; series mostly up to 46.1 µM
Inconclusive results are not listed. Activity calls are given as the source filed them. The call rests on the fitted dose curve; in most records, active means well fitted inhibition curve with a large enough effect; inconclusive means small, poorly fitted or top-dose-only effect; inactive means flat fitted curve, though single readings scatter.
Labels: 1 (yes) for active, 0 (no) for inactive

compound: CSc1nc(N)c2ncn([C@@H]3O[C@H](COP(=O)(O)OP(=O)(O)OP(=O)(O)O)[C@H](O)[C@H]3O)c2n1
answer-label: 0 (no)
//
compound: CC(C)CN(C)c1nc(N)c(C(=O)N=C(N)N)nc1Cl
answer-label: 1 (yes)
//
compound: CCCC(=O)NCCc1c2n(c3ccc(OC)cc13)Cc1ccccc1-2
answer-label: 0 (no)
//
compound: Nc1ncnc2c1nc(Sc1ccc(Cl)cc1)n2[C@H]1O[C@@H]2COP(=O)(O)O[C@H]2[C@@H]1O
answer-label: 0 (no)
//
compound: O=C(Nc1ccccc1)Nc1ccccc1
answer-label: 0 (no)
//
compound: Cc1ccccc1N1CCN(S(=O)(=O)C[C@]23CCC(CC2NC(=O)[C@@H](N)CCS(C)(=O)=O)C3(C)C)CC1 (stereo not given in full)
answer-label: 0 (no)
//
compound: OC[C@H]1O[C@@H](n2cnc3c(N[C@H]4CC5CCC4C5)ncnc32)[C@H](O)[C@@H]1O (stereo not given in full)
answer-label: 0 (no)
//
compound: NCC1OC(O[C@@H]2[C@H](O)[C@@H](OC3C(O)C(N)CC(N)C3OC3OC(CO)C(O)C(O)C3N)O[C@@H]2CO)C(N)C(O)C1O (stereo not given in full)
answer-label: 0 (no)
//
compound: COc1cc(=O)n(C)c2c(OCC(O)C(C)(C)O)cccc12 (stereo not given)
answer-label: 0 (no)
//
compound: CN1C2CCC1CC(NC(=O)c1nn(C)c3ccccc13)C2 (stereo not given)
answer-label: 0 (no)
//
compound: O=C(Cc1ccc(Cl)c(Cl)c1)OCCN1CCCC1
answer-label: 0 (no)
//
compound: CC(C)(C)[C@]1(O)CCN2CC3c4ccccc4CCc4cccc(c43)[C@@H]2C1 (stereo not given in full)
answer-label: 1 (yes)
//
compound: NCCNC(=O)c1ccc(Cl)cc1
answer-label: 0 (no)
//
compound: CC(=O)[C@@]1(O)CC[C@H]2C3CCC4=CC(=O)CC[C@]4(C)C3CC[C@@]21C (stereo not given in full)
answer-label: 0 (no)
//
compound: CN(C)C1C(=O)C(C(N)=O)=C(O)[C@@]2(O)C(=O)C3=C(O)c4c(O)ccc(Cl)c4[C@@H](O)C3C[C@@H]12 (stereo not given in full)
answer-label: 0 (no)
//
compound: OC[C@H]1O[C@@H](n2cnc3c(Nc4ccccc4)ncnc32)[C@H](O)[C@H]1O
answer-label: 0 (no)
//
compound: CC(N)=NCCCC(N)C(=O)O (stereo not given)
answer-label: 0 (no)
//
compound: C[C@]12CCC(=O)C=C1CC[C@@H]1C2[C@@H](O)C[C@@]2(C)[C@H]1CC[C@]2(O)C(=O)CO (stereo not given in full)
answer-label: 0 (no)
//
compound: C[C@H]1CC2[C@@H]3CCC4=CC(=O)C=C[C@]4(C)[C@@]3(F)[C@@H](O)C[C@]2(C)[C@@]1(O)C(=O)CO (stereo not given in full)
answer-label: 0 (no)
//
compound: NC(=NCCC[C@H](N)C(=O)O)NO
answer-label: 0 (no)
